tested on: red blood cells; assay: Hemolysis assay; assay type: cell-based, Sprague-Dawley mouse
Listing of entries alongside the reported HC50.

- molecule: "C[C@@H](c1ccccc1)N(CC(N)=O)C(=O)CN(CCCCN)C(=O)CN(CCCCN)C(=O)CN(C(=O)CN(C(=O)CN(CCCCN)C(=O)CN(C(=O)CN(C(=O)CN(CCCCN)C(=O)CN(CCc1c[nH]c2ccccc12)C(=O)CN(CCc1c[nH]c2ccccc12)C(=O)CNCCCCN)[C@@H](C)c1ccccc1)[C@@H](C)c1ccccc1)[C@@H](C)c1ccccc1)[C@@H](C)c1ccccc1 [Peptoid 32-1]"
  HC50: ">100/>100 μM"
- molecule: "C[C@@H](c1ccccc1)N(CC(N)=O)C(=O)CN(C(=O)CN(CCCCN)C(=O)CN(C(=O)CN(CCCCN)C(=O)CN(CCCCN)C(=O)CN(C(=O)CN(C(=O)CN(CCCCN)C(=O)CN(CCc1c[nH]c2ccccc12)C(=O)CN(CCc1c[nH]c2ccccc12)C(=O)CNCCCCN)[C@@H](C)c1ccccc1)[C@@H](C)c1ccccc1)[C@@H](C)c1ccccc1)[C@@H](C)c1ccccc1"
  HC50: ">100/>100 μM"
- molecule: "C[C@@H](c1ccccc1)N(CC(N)=O)C(=O)CN(CCCCN)C(=O)CN(C(=O)CN(C(=O)CN(CCCCN)C(=O)CN(C(=O)CN(C(=O)CN(CCCCN)C(=O)CN(C(=O)CN(CCCCN)C(=O)CNCCCCN)[C@@H](C)c1ccccc1)[C@@H](C)c1ccccc1)[C@@H](C)c1ccccc1)[C@@H](C)c1ccccc1)[C@@H](C)c1ccccc1"
  HC50: ">100/>100 μM"
- molecule: "C[C@@H](c1ccccc1)N(CC(N)=O)C(=O)CN(C(=O)CN(CCCCN)C(=O)CN(C(=O)CN(CCc1c[nH]c2ccccc12)C(=O)CN(CCCCN)C(=O)CN(CCc1c[nH]c2ccccc12)C(=O)CN(C(=O)CN(CCCCN)C(=O)CN(C(=O)CN(C(=O)CNCCCCN)[C@@H](C)c1ccccc1)[C@@H](C)c1ccccc1)[C@@H](C)c1ccccc1)[C@@H](C)c1ccccc1)[C@@H](C)c1ccccc1 [Peptoid 15-2]"
  HC50: "> 100 µM"

* * *

test system: red blood cells; test: Hemolysis assay; type: cell-based, Sprague-Dawley mouse
Where a SMILES comes first, the peptide text is derived from it. [ ]: non-standard residue; d: D form. Gly(N(CH2)2(3-indolyl)) = O=C(O)CNCCc1c[nH]c2ccccc12; Nspe = C[C@H](NCC(=O)O)c1ccccc1; Nlys = NCCCCNCC(=O)O

- compound: "C[C@@H](c1ccccc1)N(CC(N)=O)C(=O)CN(C(=O)CN(CCCCN)C(=O)CN(CCc1c[nH]c2ccccc12)C(=O)CN(CCc1c[nH]c2ccccc12)C(=O)CN(CCCCN)C(=O)CN(CCc1c[nH]c2ccccc12)C(=O)CN(CCc1c[nH]c2ccccc12)C(=O)CN(CCCCN)C(=O)CN(C(=O)CN(C(=O)CNCCCCN)[C@@H](C)c1ccccc1)[C@@H](C)c1ccccc1)[C@@H](C)c1ccccc1"
  output_unit: "%"
  Hmax (100 μM): 106.7
- compound: "C[C@@H](c1ccccc1)N(CC(N)=O)C(=O)CN(C(=O)CN(CCCCN)C(=O)CN(C(=O)CN(CCCCN)C(=O)CN(CCCCN)C(=O)CN(C(=O)CN(C(=O)CN(CCCCN)C(=O)CN(C(=O)CN(C(=O)CN(CCCCN)C(=O)CN(CCc1c[nH]c2ccccc12)C(=O)CNCCc1c[nH]c2ccccc12)[C@@H](C)c1ccccc1)[C@@H](C)c1ccccc1)[C@@H](C)c1ccccc1)[C@@H](C)c1ccccc1)[C@@H](C)c1ccccc1)[C@@H](C)c1ccccc1"
  output_unit: "%"
  Hmax (100 μM): 82.6
- compound: "C[C@H](NCC(=O)N(CCCCN)CC(=O)N(CC(=O)N(CC(=O)N(CCCCN)CC(=O)N(CC(=O)N(CC(=O)N(CCCCN)CC(=O)N(CC(=O)N(CC(=O)N(CCCCN)CC(=O)N(CC(N)=O)[C@@H](C)c1ccccc1)[C@@H](C)c1ccccc1)[C@@H](C)c1ccccc1)[C@@H](C)c1ccccc1)[C@@H](C)c1ccccc1)[C@@H](C)c1ccccc1)[C@@H](C)c1ccccc1)c1ccccc1 [Peptoid 48] (H-[Nspe][Nlys][Nspe][Nspe][Nlys][Nspe][Nspe][Nlys][Nspe][Nspe][Nlys][Nspe]-NH2)"
  output_unit: "%"
  Hmax (100 μM): 79.9
- compound: "C[C@@H](c1ccccc1)N(CC(=O)N(CCCCN)CC(=O)N(CC(=O)N(CC(=O)N(CCCCN)CC(=O)N(CCc1c[nH]c2ccccc12)CC(=O)N(CCc1c[nH]c2ccccc12)CC(N)=O)[C@@H](C)c1ccccc1)[C@@H](C)c1ccccc1)C(=O)CN(CCCCN)C(=O)CN(CCCCN)C(=O)CN(C(=O)CN(C(=O)CNCCCCN)[C@@H](C)c1ccccc1)[C@@H](C)c1ccccc1 [Peptoid 30] (H-[Nlys][Nspe][Nspe][Nlys][Nlys][Nspe][Nlys][Nspe][Nspe][Nlys][Gly(N(CH2)2(3-indolyl))][Gly(N(CH2)2(3-indolyl))]-NH2)"
  output_unit: "%"
  Hmax (100 μM): 8.4
